pIC50: −log10 of the molar value.
Quick note: these are pIC50 numbers for system: PARG (389-976) (Homo sapiens)
Sequence (Q86W56 389-976): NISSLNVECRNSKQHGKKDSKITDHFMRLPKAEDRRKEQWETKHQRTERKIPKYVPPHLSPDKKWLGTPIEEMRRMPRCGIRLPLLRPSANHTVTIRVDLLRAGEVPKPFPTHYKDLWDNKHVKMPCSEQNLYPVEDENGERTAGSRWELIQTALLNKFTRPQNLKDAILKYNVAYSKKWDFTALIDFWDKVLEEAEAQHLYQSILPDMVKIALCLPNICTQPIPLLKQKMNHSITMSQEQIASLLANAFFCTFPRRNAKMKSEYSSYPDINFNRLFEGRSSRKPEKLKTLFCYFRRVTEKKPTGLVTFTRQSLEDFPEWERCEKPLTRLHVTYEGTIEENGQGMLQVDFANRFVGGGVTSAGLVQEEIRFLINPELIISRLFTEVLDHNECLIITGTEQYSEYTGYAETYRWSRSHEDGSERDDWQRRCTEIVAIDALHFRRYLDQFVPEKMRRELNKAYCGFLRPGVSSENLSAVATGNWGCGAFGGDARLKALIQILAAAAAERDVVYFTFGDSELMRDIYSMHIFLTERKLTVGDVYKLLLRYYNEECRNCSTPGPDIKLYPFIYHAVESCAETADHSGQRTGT

molecule: CC1=C(c2c(F)c(S(=O)(=O)NC3(C#N)CC3)cc3c(-c4nnc(C(F)(F)F)s4)nn(C)c23)CCN(S(=O)(=O)C(C)C)C1 [Compound 2]
measured_target: PARG (389-976) (Homo sapiens)
pIC50: 9.52
--
molecule: CC1=C(c2c(F)c(S(=O)(=O)NC3(C)CC3)cc3c(-c4nnc(C(F)F)s4)nn(C)c23)CCN(S(=O)(=O)C(C)C)C1 [Compound 8]
measured_target: PARG (389-976) (Homo sapiens)
pIC50: 9.77
--
molecule: CC(C)S(=O)(=O)N1CC=C(c2c(F)c(S(=O)(=O)NC3(C#N)CC3)cc3c(-c4nnc(C(F)(F)F)s4)nn(C)c23)CC1 [Compound 1]
measured_target: PARG (389-976) (Homo sapiens)
pIC50: 9.64
--
molecule: CC(C)S(=O)(=O)N1CC=C(c2c(F)c(S(=O)(=O)NC3(C)CC3)cc3c(-c4nnc(C(F)F)s4)nn(C)c23)CC1 [Compound 7]
measured_target: PARG (389-976) (Homo sapiens)
pIC50: 9.68
--
molecule: CC(C)C(=O)N1CC=C(c2c(F)c(S(=O)(=O)NC3(C#N)CC3)cc3c(-c4nnc(C(F)F)s4)nn(C)c23)CC1 [Compound 9]
measured_target: PARG (389-976) (Homo sapiens)
pIC50: 9.25
--
molecule: CC(C)S(=O)(=O)N1CC=C(c2c(F)c(S(=O)(=O)NC3(C)CC3)cc3c(-c4nnc(C(F)(F)F)s4)nn(C)c23)CC1 [Compound 6]
measured_target: PARG (389-976) (Homo sapiens)
pIC50: 9.46
--
molecule: CC(C)C(=O)N1CC=C(c2c(F)c(S(=O)(=O)NC3(C)CC3)cc3c(-c4nnc(C(F)F)s4)nn(C)c23)CC1 [Compound 11]
measured_target: PARG (389-976) (Homo sapiens)
pIC50: 9.15
--
molecule: CC(C)C(=O)N1CC=C(c2c(F)c(S(=O)(=O)NC3(C#N)CC3)cc3c(-c4nnc(C(F)(F)F)s4)nn(C)c23)CC1 [Compound 10]
measured_target: PARG (389-976) (Homo sapiens)
pIC50: 8.91
--
molecule: CC1=C(c2c(F)c(S(=O)(=O)NC3(C)CC3)cc3c(-c4nnc(C(F)(F)F)s4)nn(C)c23)CCN(S(=O)(=O)C(C)C)C1 [Compound 5]
measured_target: PARG (389-976) (Homo sapiens)
pIC50: 9.37
--
molecule: CC(C)S(=O)(=O)N1CC=C(c2c(F)c(S(=O)(=O)NC3(C#N)CC3)cc3c(-c4nnc(C(F)F)s4)nn(C)c23)CC1 [Compound 3]
measured_target: PARG (389-976) (Homo sapiens)
pIC50: 9.72
--
molecule: CC1=C(c2c(F)c(S(=O)(=O)NC3(C#N)CC3)cc3c(-c4nnc(C(F)F)s4)nn(C)c23)CCN(S(=O)(=O)C(C)C)C1 [Compound 4]
measured_target: PARG (389-976) (Homo sapiens)
pIC50: 9.32
